# Test system: K-562
# Measurement Description: cell viability (% survival relative to DMSO control, bortezomib = 0%); higher = less cytotoxic
# Measurement Conditions: 10000 nM; 72 h
Value Type: cell viability (%)

* Oc1cc(Cl)ccc1Oc1ccc(Cl)cc1Cl | 66.6
* OCCN1CCN(CCCN2c3ccccc3Sc3ccc(Cl)cc32)CC1 | 0.308
* Clc1ccc2c(c1Cl)CNCC2 | 88.7
* C[C@]12O[C@H](C[C@]1(O)CO)n1c3ccccc3c3c4c(c5c6ccccc6n2c5c31)CNC4=O | 2.74
* O=C(O)C(Cl)Cl [Dichloroacetate] | 105
* C#Cc1cnc(O)nc1O | 94.5
* O=C(O)c1nn(Cc2ccc(Cl)cc2Cl)c2ccccc12 | 82.6
* O=C1Oc2ccccc2C(=O)C1CC1C(=O)Oc2ccccc2C1=O (configuration not stated) | 95.8
* CCN(CC)CCN(Cc1ccc(-c2ccc(C(F)(F)F)cc2)cc1)C(=O)Cn1c(SCc2ccc(F)cc2)nc(=O)c2c1CCC2 | -0.273
* O=C(O)c1cc2sccc2[nH]1 [4H-thieno[3,2-b]pyrrole-5-carboxylic acid] | 105
* Cc1coc2c1C(=O)C(=O)c1c-2ccc2c(C)cccc12 | 79.8
* CCCc1nn(C)c2c(O)nc(-c3cc(S(=O)(=O)N4CCN(C)CC4)ccc3OCC)nc12 | 103

----------
# System: myeloid leukemia patient primary cells Pat.1
# Measurement Description: area under dose-response curve (viability, 1 nM-10 uM) (fraction (0-1)); higher = more sensitive
# Measurement Conditions: 72 h
Value Type: area under dose-response curve

* Cc1noc2c1-c1ccccc1C(c1ccc(Cl)cc1)=N[C@H]2CC(N)=O [CPI-0610] | 0.264
* Clc1ccc(COC(Cn2ccnc2)c2ccc(Cl)cc2Cl)cc1 (centres undefined) [Econazole] | 0.0311

----------
Catalogue of cell viability readings, one per entry.
# Test system: THP-1
# Measurement Description: cell viability (% survival relative to DMSO control, bortezomib = 0%); higher = less cytotoxic
# Measurement Conditions: 10 nM; 72 h
Value Type: cell viability (%)

* CN(C)c1nc(O)c2[nH]cnc2n1 [2-Dimethylamino-6-hydroxypurine] | 94.5
* CCOC(=O)N1c2ccc(C(F)(F)F)cc2[C@@H](N(Cc2cc(C(F)(F)F)cc(C(F)(F)F)c2)C(=O)OC)C[C@H]1CC [Torcetrapib] | 97.6
* Cc1ccc(S(=O)(=O)NC2c3ccccc3Oc3ccccc32)cc1 [AH-7614] | 96.7
* C1CCc2nnc(C34CC5CC(CC(C5)C3)C4)n2CC1 [MERCK-544] | 107
* O=c1c2ccccc2[se]n1-c1ccccc1 [Ebselen] | 95.1
* CC(Cc1ccc(O)c(O)c1)C(C)Cc1ccc(O)c(O)c1 (stereo not drawn) [Masoprocol] | 98.4
* O=C(O)c1cc2sccc2[nH]1 [4H-thieno[3,2-b]pyrrole-5-carboxylic acid] | 102
* CCOc1ccc(Cc2cc([C@@H]3O[C@H](CO)[C@@H](O)[C@H](O)[C@H]3O)ccc2Cl)cc1 [Dapagliflozin] | 100

----------
# System: HL-60
# Measurement Description: cell viability (% survival relative to DMSO control, bortezomib = 0%); higher = less cytotoxic
# Measurement Conditions: 100 nM; 72 h
Value Type: cell viability (%)

• C[C@H]1O[C@@H](O[C@H]2[C@@H](O)C[C@H](O[C@H]3[C@@H](O)C[C@H](O[C@H]4CC[C@@]5(C)[C@H](CC[C@@H]6[C@@H]5C[C@@H](O)[C@]5(C)[C@@H](C7=CC(=O)OC7)CC[C@]65O)C4)O[C@@H]3C)O[C@@H]2C)C[C@H](O)[C@@H]1O = -0.615
• CN(C/C=C/C#CC(C)(C)C)Cc1cccc2ccccc12 = 118
• O=C(O)CCc1ccc(NCc2cccc(Oc3ccccc3)c2)cc1 = 104
• CC(C(=O)O)C(=O)O [Methylmalonate] = 92.2
• C[C@]12O[C@H](C[C@]1(O)CO)n1c3ccccc3c3c4c(c5c6ccccc6n2c5c31)CNC4=O = 44.5
